Form field: koff (one value per entry).
Target: LecA (Pseudomonas aeruginosa)
Construct: made in house
Sequence (Q05097 whole entry): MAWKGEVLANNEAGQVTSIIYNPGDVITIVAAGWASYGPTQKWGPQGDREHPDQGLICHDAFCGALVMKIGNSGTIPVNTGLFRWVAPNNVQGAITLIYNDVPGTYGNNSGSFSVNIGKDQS
Assay: surface plasmon resonance (SPR) direct binding to immobilised LecA

Illustrative cases are given below, each with its answer.
molecule: O=C(NCc1cn(CCOCCOCCOCCNC(=S)Nc2ccc3c(c2)C(=O)OC32c3ccc(O)cc3Oc3cc(O)ccc32)nn1)c1ccc(C(Oc2ccc(/C=N/NC(=O)c3ccc(O[C@@H]4OC(CO)[C@H](O)C(O)C4O)cc3)cc2)Oc2ccc(/C=N/NC(=O)c3ccc(O[C@@H]4OC(CO)[C@H](O)C(O)C4O)cc3)cc2)cc1 (stereo partly shown) [Compound 13]
koff: 0.00593 s⁻¹
--
molecule: O=C(CCc1ccc(O[C@@H]2O[C@H](CO)[C@H](O)[C@H](O)[C@H]2O)cc1)Nc1ccc(OCCOc2ccc(NC(=O)CCc3ccc(O[C@@H]4O[C@H](CO)[C@H](O)[C@H](O)[C@H]4O)cc3)cn2)nc1 [Compound M31]
koff: 0.00141 s⁻¹
--
molecule: O=C(/C=C/c1ccc(O[C@@H]2O[C@H](CO)[C@H](O)[C@H](O)[C@H]2O)cc1)Nc1ccc(OCCCCOc2ccc(NC(=O)/C=C/c3ccc(O[C@@H]4O[C@H](CO)[C@H](O)[C@H](O)[C@H]4O)cc3)cc2)cc1 [Compound K18]
koff: 0.00388 s⁻¹

Read the next record carefully.
Ask: Return reported koff; argument: O=C(/C=C/c1ccc(O[C@@H]2O[C@H](CO)[C@H](O)[C@H](O)[C@H]2O)cc1)Nc1ccc(Oc2ccc(NC(=O)/C=C/c3ccc(O[C@@H]4O[C@H](CO)[C@H](O)[C@H](O)[C@H]4O)cc3)cc2)cc1 [Compound G18]
Result: 0.00596 s⁻¹

Recorded values, source patent US12545699B2.
